IM (%) dosing recommendation reference
test system: CYP2D6; settings: CYP2D6 intermediate metabolizers; percent of usual dose
Provide only the numeric value, understood in %.

>>> readout_value("Fc1ccc([C@@H]2CCNC[C@H]2COc2ccc3c(c2)OCO3)cc1")
90
>>> readout_value("O=C1CCc2ccc(OCCCCN3CCN(c4cccc(Cl)c4Cl)CC3)cc2N1")
92
>>> readout_value("COc1ccc(C(CN(C)C)C2(O)CCCCC2)cc1 (stereo not shown)")
86

Continue with the compound presented below.
The compound listed as `OCCN1CCN(CCCN2c3ccccc3Sc3ccc(Cl)cc32)CC1` has a reported IM (%) dosing recommendation of 80

====

PM (%) dosing recommendation reference
test system: CYP2C19; experiment: dosing recommendation per CYP2C19 metabolizer subgroup as percentage of usual population dose (Equations 4-6); conditions: human
Provide only the numeric value, understood in %.

>>> readout_value("CN1CCN2c3ccccc3Cc3ccccc3C2C1 (centres unmarked)")
100
>>> readout_value("O=C(NCCN1CCOCC1)c1ccc(Cl)cc1 [moclobemide]")
54
>>> readout_value("CN(C)CCC=C1c2ccccc2COc2ccccc21 [doxepin]")
46

Tested system CYP2C19; PM (%) dosing recommendation recorded for `CN[C@H]1CC[C@@H](c2ccc(Cl)c(Cl)c2)c2ccccc21` was 75

Tested system CYP2C19; PM (%) dosing recommendation recorded for `CN1CCN(C2=Nc3cc(Cl)ccc3Nc3ccccc32)CC1` was 78

Tested system CYP2C19; PM (%) dosing recommendation recorded for CC(CN(C)C)CN1c2ccccc2CCc2ccccc21 (centres unmarked) was 45

Tested system CYP2C19; PM (%) dosing recommendation recorded for CN(C)CCCC1(c2ccc(F)cc2)OCc2cc(C#N)ccc21 (centres unmarked) was 61

Tested system CYP2C19; PM (%) dosing recommendation recorded for `CNCCCC12CCC(c3ccccc31)c1ccccc12` was 100

====

tested on: CYP2C19; experiment: dosing recommendation per CYP2C19 metabolizer subgroup as percentage of usual population dose (Equations 4-6); details: human
RECORDED METRIC: 2 al (effect of 2 non-functional alleles)
Response field accepts a number only; no unit should be typed.

# annotated cases, reported 2 al (effect of 2 non-functional alleles) shown
>>> readout_value("CN1CCN2c3ccccc3Cc3ccccc3C2C1 (stereo not drawn)")
0.00
>>> readout_value("CN1CCN(C2=Nc3cc(Cl)ccc3Nc3ccccc32)CC1")
0.25
>>> readout_value("CN(C)CCC=C1c2ccccc2COc2ccccc21 [doxepin]")
0.54
>>> readout_value("CN(C)CCCC1(c2ccc(F)cc2)OCc2cc(C#N)ccc21 (stereo not drawn)")
0.44
>>> readout_value("CN[C@H]1CC[C@@H](c2ccc(Cl)c(Cl)c2)c2ccccc21")
0.29
>>> readout_value("CNCCCC12CCC(c3ccccc31)c1ccccc12")
0.00
>>> readout_value("CN(C)CCCN1c2ccccc2CCc2ccc(Cl)cc21")
0.44
>>> readout_value("O=C(NCCN1CCOCC1)c1ccc(Cl)cc1 [moclobemide]")
0.51

Continue with the compound presented below.
The compound listed as CC(CN(C)C)CN1c2ccccc2CCc2ccccc21 (stereo not drawn) has a reported 2 al (effect of 2 non-functional alleles) of 0.59

====

2 al/1 al reference
System: CYP2C19
Assay: dosing recommendation per CYP2C19 metabolizer subgroup as percentage of usual population dose (Equations 4-6)
Details: human
Excerpt: Assuming the goal is to maintain the same AUC for all three subpopulations of patients, the following subpopulation dosing relationships hold: DPM=DEM*(AUCEM/AUCPM) OR DPM=DEM*R if R=(AUCEM/AUCPM) (Equation 2) DIM=DEM*(AUCEM/AUCIM) OR DIM=DEM*S if S=(AUCEM/AUCIM) (Equation 3) […]
Response field accepts a number only; no unit should be typed.

>>> readout_value("O=C(NCCN1CCOCC1)c1ccc(Cl)cc1 [moclobemide]")
2.00
>>> readout_value("CN(C)CCCC1(c2ccc(F)cc2)OCc2cc(C#N)ccc21 (centres unmarked) [citalopram]")
1.96
>>> readout_value("CN[C@H]1CC[C@@H](c2ccc(Cl)c(Cl)c2)c2ccccc21 [sertraline]")
2.00
>>> readout_value("CN1CCN(C2=Nc3cc(Cl)ccc3Nc3ccccc32)CC1 [clozapine]")
2.00

Continue with the compound presented below.
The compound listed as CC(CN(C)C)CN1c2ccccc2CCc2ccccc21 (centres unmarked) [trimipramine] has a reported 2 al/1 al of 1.12
